target: kappa-type opioid receptor (Cavia porcellus); construct: using guiniea pig cerebellum membrane; from tissue; host or cells: guinea pig cerebellum membranes; test: inhibition of specific [^3 H] EKC binding to guinea pig cerebellum membrane
Sequence (P41144 whole entry): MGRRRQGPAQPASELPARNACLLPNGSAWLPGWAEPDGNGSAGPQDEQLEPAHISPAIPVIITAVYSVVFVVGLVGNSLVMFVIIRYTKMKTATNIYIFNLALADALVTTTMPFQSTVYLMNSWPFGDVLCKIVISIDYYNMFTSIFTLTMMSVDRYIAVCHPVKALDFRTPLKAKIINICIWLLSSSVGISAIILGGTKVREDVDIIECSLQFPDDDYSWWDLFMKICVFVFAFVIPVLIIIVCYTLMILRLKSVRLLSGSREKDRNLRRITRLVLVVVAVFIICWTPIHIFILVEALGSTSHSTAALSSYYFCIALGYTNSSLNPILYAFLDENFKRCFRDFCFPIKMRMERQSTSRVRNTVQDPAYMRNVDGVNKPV
PARAMETER MEASURED: pKi
Would you please state pKi, meaning minus log10 of the concentration in mol/L, as a bare number?

Name the recorded pKi for Oc1ccc2c3c1O[C@H]1C(=NOC4CCCC4)CC[C@@]4(O)[C@@H](C2)N(CC2CC2)CC[C@]314 .
8.10

// repeat for ON=C1CC[C@@]2(O)[C@H]3Cc4ccc(O)c5c4[C@@]2(CCN3CC2CC2)[C@H]1O5 and report
8.69

Field entry: Oc1ccc2c3c1O[C@H]1C(=NOCCc4ccccc4)CC[C@@]4(O)[C@@H](C2)N(CC2CC2)CC[C@]314
9.55

Entry to check: NCc1ccc(ON=C2CC[C@@]3(O)[C@H]4Cc5ccc(O)c6c5[C@@]3(CCN4CC3CC3)[C@H]2O6)cc1
9.15

Next record, please: O=C1c2ccccc2C(=O)N1Cc1ccc(ON=C2CC[C@@]3(O)[C@H]4Cc5ccc(O)c6c5[C@@]3(CCN4CC3CC3)[C@H]2O6)cc1
7.74

Next entry: Oc1ccc2c3c1O[C@H]1C(=NOc4ccccc4)CC[C@@]4(O)[C@@H](C2)N(CC2CC2)CC[C@]314
8.46

Next up: Oc1ccc2c3c1O[C@H]1C(=NOC4CCCc5ccccc54)CC[C@@]4(O)[C@@H](C2)N(CC2CC2)CC[C@]314 (stereo partly drawn)
8.33

Could you do the same for Oc1ccc2c3c1O[C@H]1C(=NOC4CCCCC4)CC[C@@]4(O)[C@@H](C2)N(CC2CC2)CC[C@]314 , please?
8.01

Likewise for C=C1CC[C@@]2(O)[C@H]3Cc4ccc(O)c5c4[C@@]2(CCN3CC2CC2)[C@H]1O5 [Nalmefene, reference compound] ?
9.05

Next entry: N#Cc1ccc(ON=C2CC[C@@]3(O)[C@H]4Cc5ccc(O)c6c5[C@@]3(CCN4CC3CC3)[C@H]2O6)cc1
7.89

Follow-up entry: Oc1ccc2c3c1O[C@H]1C(=NOC45CC6CC(CC(C6)C4)C5)CC[C@@]4(O)[C@@H](C2)N(CC2CC2)CC[C@]314
8.19

Field entry: CC(C)(C)ON=C1CC[C@@]2(O)[C@H]3Cc4ccc(O)c5c4[C@@]2(CCN3CC2CC2)[C@H]1O5
8.13

Taken from patent US4889860A.
